- system tested: T1, human glycophorin A on human red blood cells or red blood cell membranes (human, UniProt P02724 20-150)
- T1 construct: whole, on cells; also called hRBC; human RBC membranes
- T1 sequence (looked up): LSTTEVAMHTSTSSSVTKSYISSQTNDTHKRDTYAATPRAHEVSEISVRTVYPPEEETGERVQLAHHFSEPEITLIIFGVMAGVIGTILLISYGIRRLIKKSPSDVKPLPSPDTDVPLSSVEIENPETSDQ
- test method notes: SPR (Biacore), Fab on human RBC membranes; T½ = 0.69/kd; * not accurate
Documented Estimated T½ across a set of binders
Please reply with the bare figure in days and do not write the unit itself.

Some binders with known Estimated T½ results, for comparison:
[
  {
    "binder": "TPP-7794, affinity matured 6C12 Fab (Fab, V domains shown, Tested as Fab) VH: EVQLVQSGAEVKKPGASVKVSCKASGYTFTTYAIHWVRQAPGQGLEWMGYINPSSGYTRYNPKFKHRVTMTRDKSTSTAYMELRSLRSDDTAVYYCWTGTRDYWGQGTTVTVSS VL: DIQLTQSPSFLSASVGDRVTITCRASSSVRYIYWFQQKPGKAPKLLIYATSFRQSGVPSRFSGSGSGTEYTLTISSLQPEDFATYYCHQRNSFPYTFGQGTKLEIK",
    "numeric value": 922
  },
  {
    "binder": "TPP-7797, affinity matured 6C12 Fab (Fab, V domains shown, Tested as Fab) VH: EVQLVQSGAEVKKPGASVKVSCKASGYTFTTYTIHWVRQAPGQGLEWMGYINPSSGYTRYNPKFKGRVTMTRDKSTSTAYMELRSLRSDDTAVYYCWTGRRDYWGQGTTVTVSS VL: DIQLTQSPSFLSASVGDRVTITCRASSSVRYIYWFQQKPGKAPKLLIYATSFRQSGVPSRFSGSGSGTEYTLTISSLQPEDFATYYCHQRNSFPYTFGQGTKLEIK",
    "numeric value": 0.487
  },
  {
    "binder": "TPP-7783, affinity matured 6C12 Fab (Fab, V domains shown, Tested as Fab) VH: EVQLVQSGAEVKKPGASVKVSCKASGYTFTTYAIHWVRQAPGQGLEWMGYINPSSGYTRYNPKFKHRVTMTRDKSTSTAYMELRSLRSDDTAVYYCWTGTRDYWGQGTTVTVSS VL: DIQLTQSPSFLSASVGDRVTITCRASSSVRYIYWFQQKPGKAPKLLIYATSFRRSGVPSRFSGSGSGTEYTLTISSLQPEDFATYYCHQRNSFPYTFGQGTKLEIK",
    "numeric value": 33
  }
]

Turning to the following binder.
Need Estimated T½, item TPP-7790, affinity matured 6C12 Fab (Fab, V domains shown, Tested as Fab with a 6xHIS tag) VH: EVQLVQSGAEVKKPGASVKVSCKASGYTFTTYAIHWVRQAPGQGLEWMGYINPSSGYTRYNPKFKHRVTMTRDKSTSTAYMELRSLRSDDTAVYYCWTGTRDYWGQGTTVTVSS VL: DIQLTQSPSFLSASVGDRVTITCRASSSVRYIYWFQQKPGKAPKLLIYATSFLQSGVPSRFSGSGSGTEYTLTISSLQPEDFATYYCHQRNSFPYTFGQGTKLEIK 596
